# Method Summary: UV absorption of the chromophore (λmax, ε)
# Assay type: physicochemical
# Set-up: key: λmax in nm
# Conditions: effect of attaching Michael acceptor to 4-aminobenzophenone chromophore
Measurement Label: λmax (nm)
Field format: number, assumed nm, no unit text.

NC(CSC1CC(=O)N(c2ccc(C(=O)c3ccccc3)cc2)C1=O)C(=O)O (stereo not shown) [maleimide reacted with cysteine] :: 293
O=C(c1ccccc1)c1ccc(N2C(=O)C=CC2=O)cc1 [Example 4, N-(4-benzoylphenyl)maleimide] :: 258
Nc1ccc(C(=O)c2ccccc2)cc1 [4-aminobenzophenone, reference compound] :: 318

λmax for O=C(O)/C=C\C(=O)Nc1ccc(C(=O)c2ccccc2)cc1 ? 306

* * *

# Method Summary: UV absorption of the chromophore (λmax, ε)
# Format: physicochemical
# Parameters: key: λmax in nm
# Conditions: characterisation in the Examples, solvent not stated
λmax listing for selected compounds.
Field format: number, assumed nm, no unit text.

Examples with their reported λmax follow.
COC(=O)c1ccc(NC(=O)/C=C\C(=O)O)cc1 [Example 7, N-(4-methoxycarbonylphenyl)maleamic Acid] :: 294
CCCCOC(=O)c1ccc(NC(=O)/C=C\C(=O)O)cc1 [Example 9] :: 294
COC(=O)c1ccc(N2C(=O)C=CC2=O)cc1 [Example 8, N-(4-methoxycarbonylphenyl)maleimide] :: 245

λmax for O=C(O)/C=C\C(=O)Nc1ccc(C(=O)c2ccccc2)cc1 [Example 3, N-(4-benzoylphenyl)maleamic Acid] ? 306

* * *

log10 of Toxicity listing for selected compounds.
# Method Summary: Ames tests (mutagenicity and toxicity), with or without rat liver metabolic activation system S9
# Format: cell-based
# Conditions: +S9
Units before log transform: μG plate^-1; reported quantity: Toxicity; transform: log10.

Examples with their reported log10 of Toxicity follow.
O=C(O)c1ccc(N2C(=O)C=CC2=O)cc1 [Example 2, N-(4-carboxyphenyl)maleimide] :: 2.70
O=C(O)/C=C/c1ccc(N2C(=O)C=CC2=O)cc1 :: 2.30
O=C(O)/C=C\C(=O)Nc1ccc(C(=O)O)cc1 :: 3.70
O=C(c1ccccc1)c1ccc(OCCCCCCN2C(=O)C=CC2=O)cc1 [Example 12, N-[6-(4-benzoylphenoxy)-hexyl]-maleimide] :: 2.90
O=C(O)/C=C\C(=O)Nc1ccc(/C=C/C(=O)O)cc1 :: 3.70

log10 of Toxicity for O=C(c1ccccc1)c1ccc(N2C(=O)C=CC2=O)cc1 [Example 4, N-(4-benzoylphenyl)maleimide] ? 2.00

log10 of Toxicity for CCN1C(=O)C=CC1=O ? 1.70

log10 of Toxicity for O=C(O)/C=C\C(=O)NCCCCCCOc1ccc(C(=O)c2ccccc2)cc1 ? 3.40

log10 of Toxicity for O=C(O)/C=C\C(=O)Nc1ccc(C(=O)c2ccccc2)cc1 ? 3.40

* * *

# Method Summary: UV absorption of the chromophore (λmax, ε)
# Format: physicochemical
# Conditions: at λmax, solvent not stated; in M-1·cm-1 (unit assumed)
Measurement Label: ε
// return just the number, without any unit appended

Examples with their reported ε follow.
O=C(O)/C=C\C(=O)Nc1ccc(C(=O)c2ccccc2)cc1 :: 20560
CCCCOC(=O)c1ccc(NC(=O)/C=C\C(=O)O)cc1 :: 15806
COC(=O)c1ccc(N2C(=O)C=CC2=O)cc1 [Example 8, N-(4-methoxycarbonylphenyl)maleimide] :: 15844
COC(=O)c1ccc(NC(=O)/C=C\C(=O)O)cc1 :: 16013

ε for CCCCOC(=O)c1ccc(N2C(=O)C=CC2=O)cc1 [Example 10, N-(4-n-butyloxycarbonylphenyl)maleimide] ? 15563
